Origin of measurements: PubChem BioAssay (NCI)

growth reference
- Tested on: HCC-2998 colon
- testMethodNotes: NCI-60 one-dose screen, 48 h (100 = growth as untreated, 0 = no growth, -100 = all killed)
- testParameters: 10 µM unless noted
About 83,000 compounds went through this panel and 20% of them were active in at least one assay; those are over-represented in the sample as a whole.
The reply should contain only the number, in %.

For orientation, consider the following solved cases.
compound | measureUnit | experimentalValue
O=C(Nc1ccc(I)cc1F)c1cc(Br)ccc1O | % | 14.6
Brc1ccc(Oc2ccc(Nc3ncnc4onc(-c5ccccc5)c34)cc2)cc1 | % | 95.5
COc1ccc(C2C3=C(COC3=O)N(CCO)c3cc4c(cc32)CCC4)cc1OC (configuration not stated) | % | -0.413
NC(CCc1nc2ccccc2c(=O)[nH]1)C(=O)O (configuration not stated) | % | 107
CC(C)[C@H](NC(=O)Cn1cc(C(=O)O)nn1)C(=O)O | % | 107

Asked: Please give the measured growth for this compound: O=S(=O)(c1ccccc1)n1cc2c(c1-c1ccccc1)CCc1sc(Nc3ccccc3)nc1-2
Given back: 110

Asked: Please give the measured growth for this compound: Cc1ccc(Cn2c(N3CCC(C(=O)NCc4cccs4)CC3)nc3ccccc32)cc1
Given back: 90.1

Asked: Please give the measured growth for this compound: Nc1ccc(-c2nc3cc(Oc4ccc(Oc5ccc6[nH]c(-c7ccc(N)cc7)nc6c5)cc4)ccc3[nH]2)cc1
Given back: 106

Asked: Please give the measured growth for this compound: S=C1NC2(c3ccccc3)CCC(=S)N2c2ccccc21 (configuration not stated)
Given back: 127

Asked: Please give the measured growth for this compound: CCOC(=O)c1c2c(n3cccc(Cl)c13)C(=O)c1ncccc1C2=O
Given back: 46

Asked: Please give the measured growth for this compound: Cc1c(-c2noc(-c3ccc([N+](=O)[O-])cc3)n2)no[n+]1[O-]
Given back: 102

Asked: Please give the measured growth for this compound: Nc1nonc1-n1nncc1-c1cccnc1
Given back: 112
